All figures here come from paper PMC10377643.

Let's look at some compounds and their measured IC50.
Assay: Cytotoxicity assay
Assay type: cell-based, human
Settings: human, HEK293 human embryonic kidney cells, mean (n = 2), read-out: Cytotoxicity (IC50), concentration of compound at 50% cytotoxicity
MEASURED PROPERTY: IC50

INSERT INTO results (compound, measurement) VALUES
  ('COc1ccc(/C=C/C(=O)NCCCNCCCCNCCCNC(=O)/C=C/c2ccc(OC)c(Br)c2)cc1Br.O=C(O)C(F)(F)F.O=C(O)C(F)(F)F [Compound 15a]', '> 35.2 µM'),
  ('O=C(C=Cc1ccccc1)NCCCNCCCCCCCNCCCNC(=O)C=Cc1ccccc1.O=C(O)C(F)(F)F.O=C(O)C(F)(F)F [Compound 13c]', '> 43.7 µM'),
  ('COc1c(Br)cc(/C=C/C(=O)NCCCNCCCCNCCCNC(=O)/C=C/c2cc(Br)c(OC)c(Br)c2)cc1Br.O=C(O)C(F)(F)F.O=C(O)C(F)(F)F [Compound 16a]', '> 30 µM'),
  ('COc1ccc(/C=C/C(=O)NCCCNCCCCCCCNCCCNC(=O)/C=C/c2ccc(OC)c(Br)c2)cc1Br.O=C(O)C(F)(F)F.O=C(O)C(F)(F)F [Compound 15c]', '> 33.7 µM'),
  ('COc1ccc(/C=C/C(=O)NCCCNCCCCCCCNCCCNC(=O)/C=C/c2ccc(OC)cc2)cc1.O=C(O)C(F)(F)F.O=C(O)C(F)(F)F [Compound 14c]', '> 40.4 µM');

###

Let's look at some compounds and their measured Dox/P. a: fold change (intrinsic MIC of test compound / combination MIC).
Tested on: P. aeruginosa ATCC 27853
Test: Doxycycline enhancement against P. aeruginosa
Type: cell-based, Pseudomonas aeruginosa
Details: doxycycline fixed at 4.5 µM
MEASURED PROPERTY: Dox/P. a: fold change (intrinsic MIC of test compound / combination MIC)

INSERT INTO assay_data (compound, system, measurement) VALUES
  ('COc1c(Br)cc(/C=C/C(=O)NCCCNCCCCCCCCNCCCNC(=O)/C=C/c2cc(Br)c(OC)c(Br)c2)cc1Br.O=C(O)C(F)(F)F.O=C(O)C(F)(F)F [Compound 16d]', 'P. aeruginosa ATCC 27853', '> 4 fold'),
  ('COc1ccc(/C=C/C(=O)NCCCNCCCCCCCNCCCNC(=O)/C=C/c2ccc(OC)c(Br)c2)cc1Br.O=C(O)C(F)(F)F.O=C(O)C(F)(F)F [Compound 15c]', 'P. aeruginosa ATCC 27853', '> 8 fold'),
  ('COc1ccc(/C=C/C(=O)NCCCNCCCCNCCCNC(=O)/C=C/c2ccc(OC)c(Br)c2)cc1Br.O=C(O)C(F)(F)F.O=C(O)C(F)(F)F [Compound 15a]', 'P. aeruginosa ATCC 27853', '> 8 fold'),
  ('COc1ccc(/C=C/C(=O)NCCCNCCCCCCCCCCCCNCCCNC(=O)/C=C/c2ccc(OC)c(Br)c2)cc1Br.O=C(O)C(F)(F)F.O=C(O)C(F)(F)F [Compound 15f]', 'P. aeruginosa ATCC 27853', '> 4 fold'),
  ('COc1ccc(/C=C/C(=O)NCCCNCCCCNCCCNC(=O)/C=C/c2ccc(OC)cc2)cc1.O=C(O)C(F)(F)F.O=C(O)C(F)(F)F [Compound 14a]', 'P. aeruginosa ATCC 27853', '> 16 fold'),
  ('COc1ccc(/C=C/C(=O)NCCCNCCCCCCNCCCNC(=O)/C=C/c2ccc(OC)c(Br)c2)cc1Br.O=C(O)C(F)(F)F.O=C(O)C(F)(F)F [Compound 15b]', 'P. aeruginosa ATCC 27853', '> 4 fold'),
  ('COc1ccc(/C=C/C(=O)NCCCNCCCCCCCNCCCNC(=O)/C=C/c2ccc(OC)cc2)cc1.O=C(O)C(F)(F)F.O=C(O)C(F)(F)F [Compound 14c]', 'P. aeruginosa ATCC 27853', '> 8 fold'),
  ('O=C(C=Cc1ccccc1)NCCCNCCCCCCCNCCCNC(=O)C=Cc1ccccc1.O=C(O)C(F)(F)F.O=C(O)C(F)(F)F [Compound 13c]', 'P. aeruginosa ATCC 27853', '> 4 fold'),
  ('COc1ccc(/C=C/C(=O)NCCCNCCCCCCNCCCNC(=O)/C=C/c2ccc(OC)cc2)cc1.O=C(O)C(F)(F)F.O=C(O)C(F)(F)F [Compound 14b]', 'P. aeruginosa ATCC 27853', '> 4 fold'),
  ('COc1ccc(/C=C/C(=O)NCCCNCCCCCCCCNCCCNC(=O)/C=C/c2ccc(OC)c(Br)c2)cc1Br.O=C(O)C(F)(F)F.O=C(O)C(F)(F)F [Compound 15d]', 'P. aeruginosa ATCC 27853', '> 4 fold'),
  ('COc1c(Br)cc(/C=C/C(=O)NCCCNCCCCCCCCCCCCNCCCNC(=O)/C=C/c2cc(Br)c(OC)c(Br)c2)cc1Br.O=C(O)C(F)(F)F.O=C(O)C(F)(F)F [Compound 16f]', 'P. aeruginosa ATCC 27853', '> 4 fold');
